These entries and their values trace back to patent US11395857B2.

Consider the following molecules and their measured tissue uptake at 120 h readings.
- experimentNotes: Biodistribution of 177Lu-labeled αMSH analogues in mice bearing B16F10 mouse melanoma
- Assay type: in vivo, C57BL/6J mice
- conditionSummary: mouse, muscle, iv, total radioactivity; 120 h p.i., C57BL/6J mice, B16F10 melanoma; read-out: Biodistribution, Muscle
Unit %ID/g implied. Number only.

>>> recordednumber("CCCC[C@H](NC(=O)CN1CCC(NC(=O)[C@H](CCCCNC(=O)CN2CCN(CC(=O)O)CCN(CC(=O)O)CCN(CC(=O)O)CC2)NC(=O)[C@H](CCC(=O)O)NC(=O)CCCc2ccc(I)cc2)CC1)C(=O)N[C@H]1CC(=O)NCCCC[C@@H](C(N)=O)N(C)C(=O)[C@H](Cc2c[nH]c3ccccc23)NC(=O)[C@H](CCCNC(=N)N)N(C)C(=O)[C@@H](Cc2ccccc2)NC(=O)[C@H](Cc2c[nH]cn2)NC1=O [^177Lu-labeled CCZ01118, metal not drawn]")
0.02
>>> recordednumber("CCCC[C@H](NC(=O)CN1CCC(NC(=O)CN2CCN(CC(=O)O)CCN(CC(=O)O)CCN(CC(=O)O)CC2)CC1)C(=O)N[C@H]1CC(=O)NCCCC[C@@H](C(N)=O)N(C)C(=O)[C@H](Cc2c[nH]c3ccccc23)N(C)C(=O)[C@H](CCCNC(=N)N)N(C)C(=O)[C@@H](Cc2ccccc2)NC(=O)[C@H](Cc2c[nH]cn2)N(C)C1=O [^177Lu-labeled CCZ01099, metal not drawn]")
0.01
>>> recordednumber("CCCC[C@H](NC(=O)CN1CCC(NC(=O)[C@H](CCCCNC(=O)CN2CCN(CC(=O)O)CCN(CC(=O)O)CCN(CC(=O)O)CC2)NC(=O)[C@H](CCC(=O)O)NC(=O)CCCc2ccc(I)cc2)CC1)C(=O)N[C@H]1CC(=O)NCCCC[C@@H](C(N)=O)N(C)C(=O)[C@H](Cc2c[nH]c3ccccc23)N(C)C(=O)[C@H](CCCNC(=N)N)N(C)C(=O)[C@@H](Cc2ccccc2)NC(=O)[C@H](Cc2c[nH]cn2)N(C)C1=O [^177Lu-labeled CCZ01088, metal not drawn]")
0.03

// below: tissue uptake at 120 h requested for another molecule
input: Field request: tissue uptake at 120 h | item: CCCC[C@H](NC(=O)CN1CCC(NC(=O)[C@H](CCCCNC(=O)CN2CCN(CC(=O)O)CCN(CC(=O)O)CCN(CC(=O)O)CC2)NC(=O)[C@H](CCC(=O)O)NC(=O)CCCc2ccc(I)cc2)CC1)C(=O)N[C@H]1CC(=O)NCCCC[C@@H](C(N)=O)NC(=O)[C@H](Cc2c[nH]c3ccccc23)NC(=O)[C@H](CCCNC(=N)N)NC(=O)[C@@H](Cc2ccccc2)NC(=O)[C@H](Cc2c[nH]cn2)NC1=O [^177Lu-labeled CCZ01082, metal not drawn]
output: 0.03
